assay: Liver Microsome Stability Assay, rat; assay type: in vitro ADME; conditions: rat liver microsomes 1.0 mg/mL, 1.0 uM compound, 37° C., 1 mM NADPH
assay metric: Liver Microsome Stability (Multiple Species): Rat - % Remaining after 30 min w/ NADPH (%)

# structure, measured result
records = [
    ("O=C(Nc1nc(/C=C/c2ncn(C3CC3)c2Cl)cs1)c1cc(SC(F)F)cn1Cc1ccnc(F)c1", 5),
]

I: Cc1c(Cn2cc(OC(F)F)cc2C(=O)Nc2nc(/C=C/c3ncn(C4CC4)c3Cl)cs2)ccnc1F
II: [2H]c1nc(/C=C/c2csc(NC(=O)c3cccn3Cc3ccnc(F)c3)n2)cn1C(C)C
I would appreciate it if you could say which entry, I or II , has the lower Liver Microsome Stability (Multiple Species): Rat - % Remaining after 30 min w/ NADPH (%) value. Please reply using the label of the selected record.
II
(II: 20%, I: 31%)

###

system: multiple myeloma cell line NCI-H929; assay: H929 Cell Viability Assay; type: cell-based, human; details: Homo sapiens; NCI-H929 cells, 48 hours, Celltiter-Glo; read-out: 48 hr H929 Viability Celltiter-Glo: Mean EC50
pEC50: −log10 of the molar value.
assay metric: pEC50

# count of solved cases: 6
# structure, pEC50
records = [
    ("O=C(Nc1nc(/C=C/c2ncn(C3CC3)c2Cl)cs1)c1cc(O)cn1Cc1ccnc(F)c1", 4.61),
    ("N#Cc1ccc(/C=C/c2csc(NC(=O)c3cccn3Cc3ccnc(F)c3)n2)nc1", "< 4.60"),
    ("O=C(Nc1nc(/C=C/c2ccc(OC3CC3)cc2F)cs1)c1cccn1Cc1ccnc(F)c1", "< 4.60"),
    ("Cc1nc(/C=C/c2csc(NC(=O)c3cccn3Cc3ccnc(F)c3)n2)ccc1C#N", "< 4.60"),
    ("CC(=O)N[C@H]1CC[C@@H](/C=C/c2csc(NC(=O)c3cccn3Cc3ccncc3)n2)CC1", "< 4.60"),
    ("CN[C@H]1CC[C@H](/C=C/c2csc(NC(=O)c3cccn3Cc3ccncc3)n2)CC1", "< 4.60"),
]

Given the compound `COc1cc(C(=O)Nc2nc(/C=C/c3ncn(C(C)C)c3Cl)cs2)n(Cc2ccnc(F)c2)c1` , what is its reported pEC50?
< 4.60

Given the compound `N#Cc1ocnc1/C=C/c1csc(NC(=O)c2cccn2Cc2ccnc(F)c2)n1` , what is its reported pEC50?
< 4.60

Given the compound `O=C1CCn2cc(/C=C/c3csc(NC(=O)c4cccn4Cc4ccnc(F)c4)n3)nc2N1` , what is its reported pEC50?
< 4.60

Given the compound `O=C(Nc1nc(/C=C/C2CCCC2)cs1)c1cccn1Cc1ccnc(F)c1` , what is its reported pEC50?
5.15

Given the compound `C/C(=C\c1ccc(C)c(F)n1)c1csc(NC(=O)c2cccn2Cc2ccnc(F)c2)n1` , what is its reported pEC50?
5.09

Given the compound `COc1cc(C(=O)Nc2nc(/C=C/c3ncn(C4CC4)c3Cl)cs2)n(Cc2ccnc(F)c2)c1` , what is its reported pEC50?
< 4.60

Given the compound `O=C(Nc1nc(/C=C/[C@H]2CC[C@@H](C(F)(F)F)CC2)cs1)c1cccn1Cc1ccncc1` , what is its reported pEC50?
5.20

Given the compound `O=C(Nc1nc(/C=C/c2cn(C(F)(F)F)cn2)cs1)c1cc(Cl)cn1Cc1ccnc(F)c1` , what is its reported pEC50?
5.34

Given the compound `[2H]c1nc(/C=C/c2csc(NC(=O)c3cccn3Cc3ccnc(F)c3)n2)cn1C(C)C` , what is its reported pEC50?
4.76

Given the compound `O=C(Nc1nc(/C=C/c2ccc(Cl)cn2)cs1)c1cccn1Cc1ccnc(F)c1` , what is its reported pEC50?
< 4.60

The measured values listed here are drawn from patent US20250171434A1.
